The measured values listed here are drawn from the supplement of paper PMC6757056.

B1: library; a variant is named by its letters at N, in order (parent)
chain: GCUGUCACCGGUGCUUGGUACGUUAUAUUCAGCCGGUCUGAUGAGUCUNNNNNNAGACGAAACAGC

# Variants of: B1
# ASSAY DETAILS: normalized RNA/DNA level with ligand (relative to sTRSVctl = 100) (log10 (% of sTRSVctl)); HEK293T overexpressing SLC46A1; ligand concentration (+) RNA-Seq: 6 mM; higher = less ribozyme self-cleavage, higher mRNA level
# ASSAY CONTEXT: with (6R,S)-folinic acid; ligand present: yes
EXPERIMENTAL READOUT: normalized RNA/DNA level with ligand (log10)
API note: the answer field is a bare number with no unit suffix.

Use the examples below as a reference point.
VARIANT STRING | READOUT NUMBER
GUCGAG | 2
CAAUCU | 2.05
GUUAAG | 2.02
CAGUCC | 2.04
GGGUAC | 1.99

# query: normalized RNA/DNA level with ligand (log10) of entry UGCCAA
2.01

Give the measured normalized RNA/DNA level with ligand (log10) of UAGCGU .
1.99

Which normalized RNA/DNA level with ligand (log10) value is on record for GGAACG ?
2.03

For the variant shown here, GAGUUU , give the reported normalized RNA/DNA level with ligand (log10).
2.01

Recorded normalized RNA/DNA level with ligand (log10) for ACAACG , please?
2.06

Item under review: UACCCU . Reported normalized RNA/DNA level with ligand (log10)?
2

Requested read-out: normalized RNA/DNA level with ligand (log10). Entry: GCACAU
2.01

Which normalized RNA/DNA level with ligand (log10) value is on record for AUAUGA ?
2.01

Request the reported normalized RNA/DNA level with ligand (log10) associated with CAGGUA
1.81

Suppose we examine the variant UGGCAU ; what normalized RNA/DNA level with ligand (log10) value has been reported?
2.01

What does the data say about its normalized RNA/DNA level with ligand (log10)? Entry: AGUGGG
2.04

Consider the variant shown here: CGCUAA What is its recorded normalized RNA/DNA level with ligand (log10)?
1.99
